# credit: patent US11999745B2

assay: Aqueous solubility (thermodynamic), LCMS/MS method; type: physicochemical; conditions: Blank FaSSIF (aqueous buffer), 25 °C, pH 6.5, aqueous buffer, thermodynamic from solid, Blank FaSSIF (Aq. Buffer) pH 6.5, 4 hours, 1 mg/mL theoretical, individual replicates, read-out: Thermodynamic solubility, Blank FaSSIF pH 6.5 (n = 4)
measurement.type: solubility thermodynamic at 4 h
Answer format reminder: number followed by unit.

Need solubility thermodynamic at 4 h of CC(C)(C)NC(=O)C1CCN([C@H]2C[C@H]3CC[C@@H](C2)N3c2nc(C(F)(F)F)no2)CC1 , thanks.
1740 µM

###

tested on: MDR1 (P-glycoprotein); assay: MDCK permeability/efflux; type: in vitro ADME; details: dog, pH 7.4, read-out: B−A/A−B efflux ratio
measurement.type: efflux ratio at 1 h, 1 μM
# output: bare number, no unit

# get_value(readout= efflux ratio at 1 h, 1 μM, system= MDR1 (P-glycoprotein)) for CC(C)(C)NC(=O)C1CCN([C@H]2C[C@H]3CC[C@@H](C2)N3c2nc(C(F)(F)F)no2)CC1 [Example 1]
1.2

###

assay: Hepatocyte stability, CLint (in vitro hepatocytes), mouse; assay type: in vitro ADME; details: pooled cryopreserved hepatocytes, 1.0 million cells/mL, 37° C., read-out: in vitro intrinsic clearance (CLint)
measurement.type: hepatocyte CLint at 1 μM (µL/min/1e6 cells)
Write it as a number; the unit µL/min/1e6 cells goes unstated.

# get_value(readout='hepatocyte CLint at 1 μM', item= CC(C)(C)NC(=O)C1CCN([C@H]2C[C@H]3CC[C@@H](C2)N3c2nc(C(F)(F)F)no2)CC1 )
7

###

tested on: MDR1 (P-glycoprotein); assay: MDCK permeability/efflux; type: in vitro ADME; details: dog, basolateral to apical, 1 μM, pH 7.4, 1 hour, read-out: Apparent permeability (Papp) B−A
measurement.type: Papp B→A at 1 h, 1 μM (nm/s)
Respond numerically; units are nm/s and should not be typed.

Form entry - test system: MDR1 (P-glycoprotein); read-out: Papp B→A at 1 h, 1 μM; molecule: CC(C)(C)NC(=O)C1CCN([C@H]2C[C@H]3CC[C@@H](C2)N3c2nc(C(F)(F)F)no2)CC1 [Example 1]
770

###

experiment: Hepatocyte stability, CLint (in vitro hepatocytes), dog; format: in vitro ADME; conditions: pooled cryopreserved hepatocytes, 1.0 million cells/mL, 37° C., read-out: in vitro intrinsic clearance (CLint)
measurement.type: hepatocyte CLint at 1 μM (µL/min/1e6 cells)
// return numeric value only (unit: µL/min/1e6 cells, not printed)

Which hepatocyte CLint at 1 μM is reported for this compound? CC(C)(C)NC(=O)C1CCN([C@H]2C[C@H]3CC[C@@H](C2)N3c2nc(C(F)(F)F)no2)CC1
8

###

system: MDR1 (P-glycoprotein); test: MDCK permeability/efflux; assay type: in vitro ADME; settings: dog, apical to basolateral, 1 μM, pH 7.4, 1 hour, read-out: Apparent permeability (Papp) A−B
measurement.type: Papp A→B at 1 h, 1 μM (×10⁻⁶ cm/s)
Numeric only. Scale: ×10⁻⁶ cm/s

Request body: readout Papp A→B at 1 h, 1 μM, system MDR1 (P-glycoprotein), query CC(C)(C)NC(=O)C1CCN([C@H]2C[C@H]3CC[C@@H](C2)N3c2nc(C(F)(F)F)no2)CC1 . Return the value.
66
